molecular target: CDK7/Cyclin H/MAT1 complex (Homo sapiens); test: CDK7 kinase inhibition assay (Caliper/LabChip EZ Reader); conditions: CDK7/Cyclin H/MAT1 6 nM, ATP 2 mM, 35 min at 27° C.
pIC50: −log10 of the molar value.
Hi there, I'd appreciate the recorded pIC50 for every entry that follows.

molecule	pIC50
FC(F)(F)c1cnc(N[C@H]2CCCNC2)nc1-c1c[nH]c2ccc(-c3ccnnc3)cc12 [Compound 230]	> 7.70

Hi team, please reply with pIC50 for each item in this list.
1. N#Cc1ccc2c(-c3nc(N[C@@H]4CNC[C@H](O)C4)ncc3C(F)(F)F)c[nH]c2c1 [Compound 370]
2. CNC(=O)c1cccc2c(-c3nc(NC4CCCNC4)ncc3C(F)(F)F)cn(C)c12 (centres unmarked) [Compound 307]
3. N#Cc1ccc2c(-c3nc(N[C@@H]4CCCNC4)ncc3C(F)(F)F)c[nH]c2c1-c1ccnnc1 [Compound 261]
4. FC(F)(F)c1cnc(NC2CCCNC2)nc1-c1c[nH]c2ccc(-c3cn[nH]c3)cc12 (centres unmarked) [Compound 177]
5. Ic1cnc(NC2CCCNC2)nc1-c1c[nH]c2ccccc12 (centres unmarked) [Compound 147]
6. COCCN1CCCC(Nc2ncc(Cl)c(-c3c[nH]c4ccccc34)n2)C1 (centres unmarked) [Compound 149]
7. FC(F)(F)c1cnc(NC2CCCNC2)nc1-c1c[nH]c2cc(-c3ccc4c(c3)OCCO4)ccc12 (centres unmarked) [Compound 342]
8. O=S1(=O)CCN(c2cccc3c(-c4nc(NC5CCCNC5)ncc4Cl)c[nH]c23)CC1 (centres unmarked) [Compound 196]

6.70 to 7.70
≤ 5.30
6.70 to 7.70
6.70 to 7.70
> 7.70
6.70 to 7.70
6.70 to 7.70
> 7.70

Hi team, please reply with pIC50 for each item in this list.
1. FC(F)Sc1ccc2c(-c3nc(NC4CCCNC4)ncc3C(F)(F)F)c[nH]c2c1 (centres unmarked) [Compound 374]
2. FC(F)(F)c1cnc(NC2CCCNC2)nc1-c1c[nH]c2cc(-c3cnccn3)ccc12 (centres unmarked) [Compound 328]
3. Oc1ncccc1-c1ccc2c(-c3nc(NC4CCCNC4)ncc3C(F)(F)F)c[nH]c2c1 (centres unmarked) [Compound 310]
4. CCc1cnc(NC2CCCNC2)nc1-c1n[nH]c2ccccc12 (centres unmarked) [Compound 110]

1. > 7.70
2. > 7.70
3. > 7.70
4. 6.70 to 7.70

Hi team, please reply with pIC50 for each item in this list.
1. O=C1CCN(C(=O)c2ccc3c(-c4nc(NC5CCCNC5)ncc4C(F)(F)F)c[nH]c3c2)C1 (centres unmarked) [Compound 302]
2. FC(F)(F)c1cnc(NC2CCCNC2)nc1-c1c[nH]c2cc(N3CCCC3)ccc12 (centres unmarked) [Compound 213]

6.70 to 7.70
6.70 to 7.70

Hi team, please reply with pIC50 for each item in this list.
1. COCCn1cc(-c2nc(NC3CCCNC3)ncc2Cl)c2ccccc21 (centres unmarked) [Compound 122]
2. Cc1cn(-c2cccc3c(-c4nc(NC5CCCNC5)ncc4C(F)(F)F)c[nH]c23)cn1 (centres unmarked) [Compound 172]

["5.30 to 6.70", "> 7.70"]

* * *

target: CDK12 (aa686-1082)/Cyclin K complex (Homo sapiens); construct: CDK12 (aa686-1082)/Cyclin K complex; test: CDK12 kinase inhibition assay (Caliper/LabChip EZ Reader); settings: CDK12 (aa686-1082)/Cyclin K 50 nM, ATP 2 mM, 3 hr at 27° C.
readout: IC50

// below: answered molecules
molecule	readout	experimental value
O=C(C1CCC(Nc2ncc(C(F)(F)F)c(-c3c[nH]c4ccccc34)n2)CN1)N1CCCC1 (centres unmarked)	IC50	0.2 to 5 µM
CCS(=O)(=O)c1cccc2c(-c3nc(N[C@H]4CCCNC4)ncc3C(F)(F)F)c[nH]c12	IC50	0.2 to 5 µM
FC(F)(F)c1cnc(N[C@@H]2CNCc3ccccc32)nc1-c1c[nH]c2ccccc12	IC50	≥ 5 µM
OC1CNCC(Nc2ncc(C(F)(F)F)c(-c3c[nH]c4ccccc34)n2)C1 (centres unmarked)	IC50	0.2 to 5 µM
CCc1cnc(N[C@H]2CCCNC2)nc1-c1c[nH]c2c(F)c(C#N)ccc12	IC50	≥ 5 µM
CC(C)(C)OC(=O)N1CCC[C@H](Nc2ncc(C(F)(F)F)c(-c3c[nH]c4cc(P(C)(C)=O)ccc34)n2)C1	IC50	≥ 5 µM
O=C1CCC(Nc2ncc(Cl)c(-c3c[nH]c4ccccc34)n2)CN1 (centres unmarked)	IC50	0.2 to 5 µM

Turning to the following molecule.
Dear colleague, I am looking for the recorded IC50 of the following molecule: FC(F)n1ccc(-c2ccc3c(-c4nc(NC5CCCNC5)ncc4C(F)(F)F)c[nH]c3c2)n1 (centres unmarked)
0.2 to 5 µM

* * *

target: CDK2/Cyclin E1 complex (Homo sapiens, UniProt P24941); assay: CDK2 kinase inhibition assay (Caliper/LabChip EZ Reader); assay type: biochemical; details: CDK2/Cyclin E1 0.5 nM, ATP 2 mM, 35 min at 27° C.
Hi there, I'd appreciate the recorded IC50 for every entry that follows.

compound	IC50
Cn1cc(-c2nc(NC3CCCNC3)ncc2C(F)(F)F)c2cccc(C#N)c21 (stereo not shown) [Compound 279]	≥ 5 µM
Cn1cc(-c2ccc3[nH]cc(-c4nc(NC5CCCNC5)ncc4C(F)(F)F)c3c2)cn1 (stereo not shown) [Compound 178]	≥ 5 µM
FC(F)(F)c1cnc(N[C@H]2CCCNC2)nc1-c1c[nH]c2ccc(Cl)cc12 [Compound 160]	0.2 to 5 µM

Turning to the following compound.
Dear colleague, I am looking for the recorded IC50 of the following compound: CC1(C)CCC(Nc2ncc(C(F)(F)F)c(-c3c[nH]c4cc(C#N)ccc34)n2)CN1 (stereo not shown) [Compound 350]
≥ 5 µM

* * *

target: CDK12 (aa686-1082)/Cyclin K complex (Homo sapiens, UniProt Q9NYV4); construct: CDK12 (aa686-1082)/Cyclin K complex; assay: CDK12 kinase inhibition assay (Caliper/LabChip EZ Reader); conditions: CDK12 (aa686-1082)/Cyclin K 50 nM, ATP 2 mM, 3 hr at 27° C.
Sequence (Q9NYV4 686-1082): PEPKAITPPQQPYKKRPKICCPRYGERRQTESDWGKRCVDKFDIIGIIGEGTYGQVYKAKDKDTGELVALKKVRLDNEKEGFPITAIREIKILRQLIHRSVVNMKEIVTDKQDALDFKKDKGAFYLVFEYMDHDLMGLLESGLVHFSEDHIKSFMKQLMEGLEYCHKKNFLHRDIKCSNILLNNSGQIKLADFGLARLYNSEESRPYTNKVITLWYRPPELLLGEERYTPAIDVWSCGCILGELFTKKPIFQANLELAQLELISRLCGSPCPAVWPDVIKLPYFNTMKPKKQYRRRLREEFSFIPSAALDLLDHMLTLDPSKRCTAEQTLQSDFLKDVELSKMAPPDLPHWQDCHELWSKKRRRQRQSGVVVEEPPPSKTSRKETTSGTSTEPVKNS
Sequence (O75909 whole entry partner, the tested form may be a part): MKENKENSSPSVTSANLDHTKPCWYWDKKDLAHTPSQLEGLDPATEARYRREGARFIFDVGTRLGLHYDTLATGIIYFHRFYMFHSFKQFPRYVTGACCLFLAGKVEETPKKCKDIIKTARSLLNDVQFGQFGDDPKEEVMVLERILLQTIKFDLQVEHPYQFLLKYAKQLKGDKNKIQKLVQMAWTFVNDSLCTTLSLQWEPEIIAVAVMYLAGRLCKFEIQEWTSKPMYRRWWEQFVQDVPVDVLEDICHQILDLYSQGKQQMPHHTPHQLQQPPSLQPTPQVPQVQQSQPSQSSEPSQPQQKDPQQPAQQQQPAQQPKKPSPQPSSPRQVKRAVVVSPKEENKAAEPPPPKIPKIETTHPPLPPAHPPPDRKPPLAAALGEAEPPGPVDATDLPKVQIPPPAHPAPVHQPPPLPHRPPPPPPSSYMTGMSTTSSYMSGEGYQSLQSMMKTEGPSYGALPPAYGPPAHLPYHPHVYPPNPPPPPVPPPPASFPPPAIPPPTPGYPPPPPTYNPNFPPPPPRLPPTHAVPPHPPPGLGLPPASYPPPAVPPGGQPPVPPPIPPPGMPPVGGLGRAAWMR
pIC50: −log10 of the molar value.
Hi there, I'd appreciate the recorded pIC50 for every entry that follows.

// below: answered molecules
molecule	readout	experimental value
FC(F)Sc1ccc2c(-c3nc(NC4CCCNC4)ncc3C(F)(F)F)c[nH]c2c1 (stereo not drawn)	pIC50	6.70 to 7.70
CCc1cnc(NC2CCCNC2)nc1-c1c[nH]c2c(S(C)(=O)=O)c(C#N)ccc12 (stereo not drawn)	pIC50	≤ 5.30

Hi team, please reply with pIC50 for each item in this list.
1. CC(O)c1cnc(NC2CCCNC2)nc1-c1c[nH]c2ccccc12 (stereo not drawn) [Compound 238]
2. Clc1cnc(NC2CNCCC2c2ccccc2)nc1-c1c[nH]c2ccccc12 (stereo not drawn)
3. COCn1cc(-c2nc(NC3CCCNC3)ncc2C(F)(F)F)c2cccc(C#N)c21 (stereo not drawn)
4. CCOc1ccccc1-c1ccc2c(-c3nc(NC4CCCNC4)ncc3C(F)(F)F)c[nH]c2c1 (stereo not drawn)
5. CCc1cnc(N[C@H]2CCCNC2)nc1-c1c[nH]c2c(S(=O)(=O)O)cccc12

1. ≤ 5.30
2. ≤ 5.30
3. ≤ 5.30
4. 5.30 to 6.70
5. ≤ 5.30

* * *

target: CDK7/Cyclin H/MAT1 complex (Homo sapiens, UniProt P50613); experiment: CDK7 kinase inhibition assay (Caliper/LabChip EZ Reader); assay type: biochemical; settings: CDK7/Cyclin H/MAT1 6 nM, ATP 2 mM, 35 min at 27° C.
Sequence (P50613 whole entry): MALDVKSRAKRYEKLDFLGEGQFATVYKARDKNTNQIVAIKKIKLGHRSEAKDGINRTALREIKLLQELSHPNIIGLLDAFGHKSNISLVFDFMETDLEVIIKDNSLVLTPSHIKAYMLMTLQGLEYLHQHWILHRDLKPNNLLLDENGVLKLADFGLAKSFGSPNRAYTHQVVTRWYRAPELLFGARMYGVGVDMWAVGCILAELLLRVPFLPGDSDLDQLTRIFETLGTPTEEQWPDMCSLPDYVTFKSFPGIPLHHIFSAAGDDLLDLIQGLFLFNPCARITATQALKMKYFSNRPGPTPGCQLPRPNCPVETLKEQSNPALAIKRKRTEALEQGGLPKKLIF
Sequence (P51946 whole entry partner): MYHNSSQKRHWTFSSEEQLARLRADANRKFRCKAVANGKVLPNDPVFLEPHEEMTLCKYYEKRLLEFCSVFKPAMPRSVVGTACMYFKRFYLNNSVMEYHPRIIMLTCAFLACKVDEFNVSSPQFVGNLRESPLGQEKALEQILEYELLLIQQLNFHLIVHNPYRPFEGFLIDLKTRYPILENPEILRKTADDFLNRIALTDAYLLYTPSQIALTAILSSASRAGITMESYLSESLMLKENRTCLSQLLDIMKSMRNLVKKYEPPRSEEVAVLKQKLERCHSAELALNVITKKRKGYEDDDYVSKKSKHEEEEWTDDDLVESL
Sequence (P51948 whole entry partner): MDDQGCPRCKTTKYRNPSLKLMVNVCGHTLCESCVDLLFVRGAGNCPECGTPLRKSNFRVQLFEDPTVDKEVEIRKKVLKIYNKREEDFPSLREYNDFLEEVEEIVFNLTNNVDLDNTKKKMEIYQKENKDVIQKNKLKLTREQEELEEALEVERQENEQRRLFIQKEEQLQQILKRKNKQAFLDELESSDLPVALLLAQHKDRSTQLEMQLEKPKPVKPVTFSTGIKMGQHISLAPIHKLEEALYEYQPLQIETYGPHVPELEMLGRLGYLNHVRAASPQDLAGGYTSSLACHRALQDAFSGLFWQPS
pIC50: −log10 of the molar value.
readout: pIC50

// below: answered compounds
compound	study system	experimental value
FC(F)(F)c1cnc(NC2CCCNC2)nc1-c1c[nH]c2c(-c3ccnnc3)cccc12 (stereo not shown)	CDK7/Cyclin H/MAT1 complex (Homo sapiens, UniProt P50613)	> 7.70
Cc1noc(C)c1-c1ccc2c(-c3nc(N[C@H]4CCCNC4)ncc3C(F)(F)F)c[nH]c2c1	CDK7/Cyclin H/MAT1 complex (Homo sapiens, UniProt P50613)	> 7.70
CC1CCNCC1Nc1ncc(Cl)c(-c2c[nH]c3ccccc23)n1 (stereo not shown) [Compound 126]	CDK7/Cyclin H/MAT1 complex (Homo sapiens, UniProt P50613)	6.70 to 7.70
Cn1cc(-c2ccc3c(-c4nc(NC5CCCNC5)ncc4C(F)(F)F)c[nH]c3c2)cc1C#N (stereo not shown)	CDK7/Cyclin H/MAT1 complex (Homo sapiens, UniProt P50613)	> 7.70
N#CC1CCN(C(=O)c2ccc3c(-c4nc(NC5CCCNC5)ncc4C(F)(F)F)c[nH]c3c2)C1 (stereo not shown) [Compound 292]	CDK7/Cyclin H/MAT1 complex (Homo sapiens, UniProt P50613)	> 7.70
CC1(O)CCN(C(=O)c2ccc3c(-c4nc(NC5CCCNC5)ncc4C(F)(F)F)c[nH]c3c2)C1 (stereo not shown) [Compound 221]	CDK7/Cyclin H/MAT1 complex (Homo sapiens, UniProt P50613)	> 7.70
CCc1cnc(NC2CCCNC2)nc1-c1c[nH]c2ncc(F)cc12 (stereo not shown)	CDK7/Cyclin H/MAT1 complex (Homo sapiens, UniProt P50613)	≤ 5.30
CCC1(O)CCN(C(=O)c2ccc3c(-c4nc(NC5CCCNC5)ncc4C(F)(F)F)c[nH]c3c2)C1 (stereo not shown)	CDK7/Cyclin H/MAT1 complex (Homo sapiens, UniProt P50613)	6.70 to 7.70
CCC1(Nc2ncc(Cl)c(-c3c[nH]c4ccccc34)n2)CCCNC1 (stereo not shown)	CDK7/Cyclin H/MAT1 complex (Homo sapiens, UniProt P50613)	≤ 5.30
COC1CCN(C(=O)c2ccc3c(-c4nc(NC5CCCNC5)ncc4C(F)(F)F)c[nH]c3c2)C1 (stereo not shown) [Compound 280]	CDK7/Cyclin H/MAT1 complex (Homo sapiens, UniProt P50613)	6.70 to 7.70

Hi team, please reply with pIC50 for each item in this list.
1. FC(F)(F)c1cnc(NC2CNCC(c3nnc4ccccn34)C2)nc1-c1c[nH]c2ccccc12 (stereo not shown) [Compound 267]
2. CN1CCCC(Nc2ncc(Cl)c(-c3c[nH]c4ccccc34)n2)C1 (stereo not shown)
3. COC1CCN(C(=O)c2ccc3c(-c4nc(NC5CCCNC5)ncc4C(F)(F)F)c[nH]c3c2)C1 (stereo not shown) [Compound 281]

1: 6.70 to 7.70; 2: > 7.70; 3: > 7.70

Numbers sourced from patent US20230000870A1.
